Molecular target: T1, GFP-tagged hZO-1 (residues 1619-1748), isolated ZU5 fragment (human, UniProt Q07157 1619-1748)
T1 sequence (looked up): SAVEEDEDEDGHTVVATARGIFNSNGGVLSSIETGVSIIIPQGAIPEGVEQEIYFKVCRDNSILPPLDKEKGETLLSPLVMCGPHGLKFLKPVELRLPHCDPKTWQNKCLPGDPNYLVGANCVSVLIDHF
Test: quantitative GST-pulldown supernatant depletion assay
quantityMeasured: Kd (nM)
Respond numerically; units are nM and should not be typed.

Kd recorded for this binder, GST-CGN(1-70) (domain or fragment, canine, UniProt A7YH32 1-70, looked up) MEQASTMAEPRGPVDHGVQIRFITEPVGNAEMDTLRRGGRRPAKDARANTYGVAVRVQGIAGQPFVVLNS , is 40.4
